Target: T1, soluble mouse GPNMB (recombinant extracellular domain) (mouse, UniProt Q99P91 23-502)
T1 construct: also called moGPNMB; not shown: C-terminal polyhistidine or Avi-His tag
T1 sequence: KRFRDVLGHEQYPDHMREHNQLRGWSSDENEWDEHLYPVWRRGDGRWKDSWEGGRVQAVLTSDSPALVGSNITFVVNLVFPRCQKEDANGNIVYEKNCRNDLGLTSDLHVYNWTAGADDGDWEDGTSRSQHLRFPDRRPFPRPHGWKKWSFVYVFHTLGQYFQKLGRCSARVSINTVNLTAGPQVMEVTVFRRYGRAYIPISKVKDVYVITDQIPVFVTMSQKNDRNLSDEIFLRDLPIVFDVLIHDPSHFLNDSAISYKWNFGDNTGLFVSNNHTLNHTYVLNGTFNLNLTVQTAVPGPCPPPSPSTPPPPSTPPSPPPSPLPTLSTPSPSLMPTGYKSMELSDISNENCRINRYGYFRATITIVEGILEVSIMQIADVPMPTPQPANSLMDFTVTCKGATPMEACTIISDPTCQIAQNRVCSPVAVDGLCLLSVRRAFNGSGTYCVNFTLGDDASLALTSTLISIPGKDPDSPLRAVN
Experiment: SPR Carterra, Ab immobilized
Measure Name: koff (s⁻¹)

• anti-GPNMB antibody GPN-65 (antibody, human IgG1, V domains shown, chimeric) VH: QLQLQQSGTEVVKPGASVKIPCKASGYAFSSYWMNWVKQRPGKGLEWIGQIYPGDGDTNDNGKFEGKATLTVDKSSNTAYIQLSSLTSEDSAVYFCARSPLHLRGSMDYWGQGTSVTVSS VL: SIVMTQTPKFLLVSAGDRVTITCKASQSVSNDVAWFQQKPGQSPELLIYSASNRYTGVPDRFTGSGYGTDFTFTISTVQAEDLAVYFCQQNYYSPFTFGGGTRLEIK = 5.1e-05
• anti-GPNMB antibody GPN-38 (antibody, human IgG1, V domains shown, chimeric) VH: QVQLQQPGAELVRPGTSVRLSCKASGYTFTSYWIHWVKQRPGRGLEWIGVIDPSDSYTNYNQQFNVKATLTVDTSSSAAYMQLSSLTSEDSAVYYCARGLITAVNWYFDVWGTGTTVTVSS VL: DIQMTQSPASLSTSVGEIVTITCRASENIYSYLTWYQQKQGKSPQLLVYNAKTLAEGVPSRFSGSGSGTQFSLKINSLQPEDFGTYYCQHHYGTPLTFGSGTKLEIK = 7.8e-05
• anti-GPNMB antibody GPN-41 (antibody, human IgG1, V domains shown, chimeric) VH: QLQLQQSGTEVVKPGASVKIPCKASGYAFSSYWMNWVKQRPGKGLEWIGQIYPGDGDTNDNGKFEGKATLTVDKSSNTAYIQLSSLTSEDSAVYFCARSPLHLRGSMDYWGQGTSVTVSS VL: SIVMTQTPKFLLVSAGDRVTITCKASQSVSNDVAWFQQKPGQSPELLIYSASNRYTGVPDRFTASGYGTDFTFTISAVQAEDLAVYFCQQNYYSPFTFGGGTRLEIK = 3.7e-05
• anti-GPNMB antibody GPN-35 (antibody, human IgG1, V domains shown, chimeric) VH: EVQLVESGGGSVRPGRSLKLSCAAAGFTFSDYYMTWVRQAPTKGLEWVASINHDGGGTYYRDSVKGRFTISRDNARSSLYLQMDSLRSEDTGTYYCTTRAGWHWGQGVMVTVSS VL: DIQMTQSPASLSASLGETVSIECLASEDIYNYLTWYQQKPGKSPQVLIYSASGLQDGVPSRFSGSGSGRQYSLKINGLESEDAATYFCLQDSEYPLTFGSGTKLEIK = 0.00012
